Measured fold change of affinity, listed per entry for reference.
Target: Human CD137 ECD (human)
Sequence (chain, as listed by the source limits assumed): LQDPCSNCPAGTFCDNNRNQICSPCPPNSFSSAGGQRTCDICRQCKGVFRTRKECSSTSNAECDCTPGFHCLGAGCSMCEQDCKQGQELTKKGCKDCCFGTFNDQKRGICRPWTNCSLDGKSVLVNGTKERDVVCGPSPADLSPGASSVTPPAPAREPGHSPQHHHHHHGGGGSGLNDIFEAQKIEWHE
Test: Biacore SPR, vs parent H183/L072
Quick reminder: number only, in fold, skip the unit.

H183/L072 VL Q24E (antibody, name in Kabat numbering, V domains shown) VH: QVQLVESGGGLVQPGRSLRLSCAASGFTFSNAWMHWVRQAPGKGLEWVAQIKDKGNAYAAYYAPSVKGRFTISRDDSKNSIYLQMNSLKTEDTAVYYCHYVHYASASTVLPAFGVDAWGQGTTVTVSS VL: DIVMTQSPLSLPVTPGEPASISCEASQELVHMNRNTYLHWYQQKPGQAPRLLIYKVSNRFPGVPDRFSGSGSGTDFTLKISRVEAEDVGVYYCAQGTSVPFTFGQGTKLEIK ... 0
H183/L072 VL A25Y (antibody, name in Kabat numbering, V domains shown) VH: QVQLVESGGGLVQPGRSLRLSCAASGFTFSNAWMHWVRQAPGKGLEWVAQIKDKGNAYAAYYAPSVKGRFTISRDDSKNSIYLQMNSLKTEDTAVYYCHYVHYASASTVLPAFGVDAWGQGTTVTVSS VL: DIVMTQSPLSLPVTPGEPASISCQYSQELVHMNRNTYLHWYQQKPGQAPRLLIYKVSNRFPGVPDRFSGSGSGTDFTLKISRVEAEDVGVYYCAQGTSVPFTFGQGTKLEIK ... 0

Would you kindly look at the next entry?
Fill in: fold change of affinity of H183/L072 VL L33D (antibody, name in Kabat numbering, V domains shown) VH: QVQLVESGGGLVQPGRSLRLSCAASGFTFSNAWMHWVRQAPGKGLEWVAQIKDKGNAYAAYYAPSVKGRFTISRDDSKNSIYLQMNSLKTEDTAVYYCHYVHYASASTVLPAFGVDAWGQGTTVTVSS VL: DIVMTQSPLSLPVTPGEPASISCQASQELVHMNRNTYDHWYQQKPGQAPRLLIYKVSNRFPGVPDRFSGSGSGTDFTLKISRVEAEDVGVYYCAQGTSVPFTFGQGTKLEIK is ___
0
